From: the Biogen ADME set (Fang et al. 2023)

REPORTED PROPERTY: MDR1-MDCK efflux ratio

Please review the entries below; each comes with its answer.
# CHEMICAL STRING, MDR1-MDCK efflux ratio
rows = [
    ("O=C(Nc1cncc(Cl)c1Cl)c1cccc(-n2cccn2)n1", 0.09),
    ("CN(C)c1nc(CN2CCOCC2)nc2scc(-c3cccs3)c12", 1.03),
    ("CN(Cc1ccncc1)Cc1cc2ccccc2nc1O", 2.51),
    ("CC(C)(C)C(=O)N1CCC(CN2C(=O)C(=O)N(C3CCCC3)C2=O)CC1", 2.03),
    ("O=C(CSc1nc2nc(O)cc(O)c2s1)c1ccc(-c2ccccc2)cc1", 0.876),
]

[a] CCn1c(CN2CCCCCC2)nc2ccccc2c1=O
[b] COc1cccc(-c2nc(C(=O)O)cs2)c1OC
Q: Parameter metric = MDR1-MDCK efflux ratio. Return the lower-valued option from a and b . Pick one and reply with its label.
Ans: a
(a: 0.561, b: 0.916)
